- targetEntity: Phosphatidylinositol 4,5-bisphosphate 3-kinase catalytic subunit delta isoform (Homo sapiens, UniProt O00329)
- Sequence (O00329 whole entry): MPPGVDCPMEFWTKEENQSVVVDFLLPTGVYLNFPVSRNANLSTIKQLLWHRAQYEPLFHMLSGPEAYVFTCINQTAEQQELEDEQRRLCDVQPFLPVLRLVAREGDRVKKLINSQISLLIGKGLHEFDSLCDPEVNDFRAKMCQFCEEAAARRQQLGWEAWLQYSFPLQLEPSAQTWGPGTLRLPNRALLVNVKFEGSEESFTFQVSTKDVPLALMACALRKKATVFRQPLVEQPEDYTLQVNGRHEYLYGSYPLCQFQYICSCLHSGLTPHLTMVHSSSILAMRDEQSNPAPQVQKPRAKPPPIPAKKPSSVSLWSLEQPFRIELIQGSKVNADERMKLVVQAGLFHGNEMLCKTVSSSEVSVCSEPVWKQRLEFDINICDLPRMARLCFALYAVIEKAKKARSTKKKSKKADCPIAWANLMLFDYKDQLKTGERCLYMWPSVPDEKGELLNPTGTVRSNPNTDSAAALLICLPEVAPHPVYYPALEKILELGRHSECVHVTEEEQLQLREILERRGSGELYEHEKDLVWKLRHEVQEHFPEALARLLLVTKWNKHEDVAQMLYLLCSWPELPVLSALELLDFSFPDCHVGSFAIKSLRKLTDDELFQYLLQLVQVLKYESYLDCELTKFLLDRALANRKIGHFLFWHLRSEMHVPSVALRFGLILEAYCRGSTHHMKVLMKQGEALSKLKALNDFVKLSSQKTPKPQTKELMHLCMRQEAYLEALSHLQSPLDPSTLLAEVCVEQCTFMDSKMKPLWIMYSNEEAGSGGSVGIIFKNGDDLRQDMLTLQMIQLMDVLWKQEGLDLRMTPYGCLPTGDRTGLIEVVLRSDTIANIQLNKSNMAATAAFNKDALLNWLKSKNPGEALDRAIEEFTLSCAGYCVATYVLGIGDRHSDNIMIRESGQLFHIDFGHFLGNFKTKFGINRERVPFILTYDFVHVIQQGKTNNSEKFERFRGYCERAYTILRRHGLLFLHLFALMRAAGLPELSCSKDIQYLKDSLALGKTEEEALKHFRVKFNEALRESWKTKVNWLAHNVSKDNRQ
- experimentSummary: Inhibition of PI3Kdelta (unknown origin)
observationType: IC50 (µM)
The reply should be a number in µM, with the unit left off.

Q: Given the entry CCOC(=O)c1nn(-c2ccccc2)c(=O)c2c(N)c(C#N)c(-c3cccs3)cc12 , report its measured IC50.
Result: 3.11
